Molecular target: human recombinant adrenergic α1D receptor (Homo sapiens)
Construct: expressed in transfected cells; host or cells: human embryonic kidney (HEK-293) cells
Sequence (P25100 1-572): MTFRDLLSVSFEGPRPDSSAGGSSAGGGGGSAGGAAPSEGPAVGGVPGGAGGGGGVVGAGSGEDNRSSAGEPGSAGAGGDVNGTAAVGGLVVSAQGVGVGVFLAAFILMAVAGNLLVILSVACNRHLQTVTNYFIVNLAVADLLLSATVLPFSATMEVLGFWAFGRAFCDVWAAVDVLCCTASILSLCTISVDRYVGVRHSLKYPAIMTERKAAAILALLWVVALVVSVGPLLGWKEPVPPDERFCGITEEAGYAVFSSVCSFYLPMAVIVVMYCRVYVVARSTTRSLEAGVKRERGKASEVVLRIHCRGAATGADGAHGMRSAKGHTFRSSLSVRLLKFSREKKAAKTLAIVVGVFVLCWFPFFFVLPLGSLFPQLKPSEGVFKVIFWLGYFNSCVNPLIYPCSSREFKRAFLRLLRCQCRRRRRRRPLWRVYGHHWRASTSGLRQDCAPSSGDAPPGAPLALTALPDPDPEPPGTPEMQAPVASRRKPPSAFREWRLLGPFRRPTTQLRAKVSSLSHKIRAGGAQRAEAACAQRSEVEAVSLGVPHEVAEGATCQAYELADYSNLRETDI
Assay: Adrenergic α1D radioligand binding assay
Settings: 1 μM; [3H]Prozosin specific binding; read-out: Percent Inhibition of ligand binding, Adrenergic (1 μM ligand conc.) α1D
Description: To evaluate in radioligand binding assays the activity of compounds of the invention, human recombinant adrenergic α1D receptor expressed in human embryonic kidney (HEK-293) cells [Kenny, B. A. et al. Br. J. Pharmacol. (1995), 115(6):981] in a 50 mM Tris-HCl buffer, pH 7.4, was used. Compounds of invention were incubated with 0.6 nM [^3H]Prozosin for 60 min. at 25° C. […] Receptor proteins were filtered and washed, the filters were then counted to determine [^3H]Prozosin specifically bound. […]
assay_endpoint: inhibition at 1 µM

// worked examples, inhibition at 1 µM included
compound	value
Cc1ccc2c(c1)c1c(n2CC(O)c2ccccc2)CN2CCC1C2 (stereo not shown) [Compound 4]	54%
Cc1ccc2c(c1)c1c(n2CCc2nc(-c3ccccc3)cs2)CN2CCC1C2 (stereo not shown) [Compound 19]	34%
C/C(=C\n1c2c(c3cc(C)ccc31)C1CCN(C2)C1)c1ccc(F)cc1 (stereo not shown) [Compound 22]	81%

Please look at the following compound next.
Query: inhibition at 1 µM; subject: COc1ccc(C(O)Cn2c3c(c4cc(C)ccc42)C2CCN(C3)C2)cc1F (stereo not shown) [Compound 6] 28%
